The origin of these recorded values is patent US11807625B2.

METHOD: PK of compound of Formula (Ia) after single subcutaneous dose of solution formulations in Wistar Han rats
Format: in vivo
MEASUREMENT_CONDITIONS: male, Wistar Han, rat, plasma, sc, 50 mg/kg, 2016 h; mean, n = 3 rats; SC 50 mg/kg; solution R, 400 mg/mL

>  <COMPOUND>
CC(C)(C#Cc1ccc(-c2ccc(Cl)c3c(NS(C)(=O)=O)nn(CC(F)(F)F)c23)c([C@H](Cc2cc(F)cc(F)c2)NC(=O)Cn2nc(C(F)(F)F)c3c2C(F)(F)[C@@H]2C[C@H]32)n1)S(C)(=O)=O [compound of Formula (Ia)]

>  <READING_UNIT>
nM

>  <concentration at 2016 h>
202

$$$$

----------
METHOD: PK of compound of Formula (Ia) after single subcutaneous dose of solution formulations in Wistar Han rats
Assay type: in vivo
MEASUREMENT_CONDITIONS: male, Wistar Han, rat, plasma, sc, 50 mg/kg, mean ± SD, n = 5 rats; SC 50 mg/kg; solution U, 500 mg/mL; read-out: AUC0-4704 h

>  <COMPOUND>
CC(C)(C#Cc1ccc(-c2ccc(Cl)c3c(NS(C)(=O)=O)nn(CC(F)(F)F)c23)c([C@H](Cc2cc(F)cc(F)c2)NC(=O)Cn2nc(C(F)(F)F)c3c2C(F)(F)[C@@H]2C[C@H]32)n1)S(C)(=O)=O [compound of Formula (Ia)]

>  <AUC(0-t) / µM·h>
728

$$$$

----------
METHOD: PK of compound of Formula (Ia) after single subcutaneous dose of solution formulations in beagle dogs
Type: in vivo
MEASUREMENT_CONDITIONS: male, beagle, dog, plasma, sc, 12 mg/kg, beagle dogs, SC 12 mg/kg, 400 mg/mL solution W (5.00% ethanol, 1.57% poloxamer 188), 1344 h, Mean n = 3
MEASURED_PROPERTY: concentration at 1344 h (nM)

>  <SMILES_REPR>
CC(C)(C#Cc1ccc(-c2ccc(Cl)c3c(NS(C)(=O)=O)nn(CC(F)(F)F)c23)c([C@H](Cc2cc(F)cc(F)c2)NC(=O)Cn2nc(C(F)(F)F)c3c2C(F)(F)[C@@H]2C[C@H]32)n1)S(C)(=O)=O

>  <MEASURED_PROPERTY>
concentration at 1344 h

>  <OBSERVED_VALUE>
80.7

$$$$

----------
METHOD: PK of compound of Formula (Ia) after single subcutaneous dose of solution formulations in beagle dogs
Assay type: in vivo
MEASUREMENT_CONDITIONS: male, beagle, dog, plasma, sc, 12 mg/kg, beagle dogs, SC 12 mg/kg, 400 mg/mL solution Y (water, PEG 300), 840 h, Mean n = 3

>  <COMPOUND>
CC(C)(C#Cc1ccc(-c2ccc(Cl)c3c(NS(C)(=O)=O)nn(CC(F)(F)F)c23)c([C@H](Cc2cc(F)cc(F)c2)NC(=O)Cn2nc(C(F)(F)F)c3c2C(F)(F)[C@@H]2C[C@H]32)n1)S(C)(=O)=O [compound of Formula (Ia)]

>  <READING_UNIT>
nM

>  <concentration at 840 h>
123

$$$$

----------
METHOD: PK of compound of Formula (Ia) after single subcutaneous dose of solution formulations in Wistar Han rats
Assay type: in vivo
MEASUREMENT_CONDITIONS: male, Wistar Han, rat, plasma, sc, 50 mg/kg, mean ± SD, n = 3 rats; SC 50 mg/kg; solution V, 300 mg/mL; read-out: AUC0-1344 h
MEASURED_PROPERTY: AUC(0-t) (µM·h)

>  <SMILES_REPR>
CC(C)(C#Cc1ccc(-c2ccc(Cl)c3c(NS(C)(=O)=O)nn(CC(F)(F)F)c23)c([C@H](Cc2cc(F)cc(F)c2)NC(=O)Cn2nc(C(F)(F)F)c3c2C(F)(F)[C@@H]2C[C@H]32)n1)S(C)(=O)=O

>  <MEASURED_PROPERTY>
AUC(0-t)

>  <OBSERVED_VALUE>
331

$$$$
